Would you kindly list inhibition at 300 µM for each of these compounds?
System: MCP-1 protein production by LPS-stimulated MonoMac6 cells
Experiment: Measurement of the production of MCP-1 in a human monocyte line (ELISA)
Type: cell-based
Settings: MONO-MAC-6, compound 300 μM (maximum soluble concentration), 1 h pre-incubation, LPS 100 ng/ml 20 h, MonoMac6 supernatant
Procedure: The capacity of the compounds to inhibit the expression of the protein MCP-1 by lipopolysaccharide (LPS)-stimulated MonoMac6 cells was evaluated. The cells were placed in 96-well plates at a concentration of 50 000 cells/well. […] The amount of MCP-1 produced was measured in the supernatants, suitably diluted with buffer, by means of an immunoenzymatic test (ELISA) using a commercial kit (ELISA MCP-1/JE, R&D Systems).
Express your answer in %, writing the number without its unit.

Please look at `CC(C)(OCCCOCc1nn(Cc2ccccc2)c2ccccc12)C(=O)O` and tell me its recorded inhibition at 300 µM on MCP-1 protein production by LPS-stimulated MonoMac6 cells.
88

Please look at `CC(C)(OCc1nn(C(=O)c2ccccc2)c2ccccc12)C(=O)O` and tell me its recorded inhibition at 300 µM on MCP-1 protein production by LPS-stimulated MonoMac6 cells.
83

Please look at `CC(C)(OCCOCc1nn(Cc2ccccc2)c2ccccc12)C(=O)O` and tell me its recorded inhibition at 300 µM on MCP-1 protein production by LPS-stimulated MonoMac6 cells.
73

Please look at `COc1ccc2c(c1)c(COC(C)(C)C(=O)O)nn2Cc1ccccc1` and tell me its recorded inhibition at 300 µM on MCP-1 protein production by LPS-stimulated MonoMac6 cells.
66

Please look at `COc1ccc(Cn2nc(COC(C)(C)C(=O)O)c3ccccc32)cc1` and tell me its recorded inhibition at 300 µM on MCP-1 protein production by LPS-stimulated MonoMac6 cells.
80

Please look at `O=C(O)COCc1nn(Cc2ccc(F)cc2)c2ccccc12` and tell me its recorded inhibition at 300 µM on MCP-1 protein production by LPS-stimulated MonoMac6 cells.
39

Please look at `O=C(O)COCCOCc1nn(Cc2ccccc2)c2ccccc12` and tell me its recorded inhibition at 300 µM on MCP-1 protein production by LPS-stimulated MonoMac6 cells.
63
